Data origin, for the record: patent US20200223906A1

Target: RSV F protein of subtype B (18537) on recombinant mKate-RSV (respiratory syncytial virus subtype B …, UniProt P13843 26-574)
Experiment: cell-based or functional assay
Neut IC50 subtype B by entry:
measure: Neut IC50 subtype B (µg/mL)

>>> observed_value("ADI-19009 (antibody, V domains shown) VH: QVQLVQSGAEVKRPGSSVKVSCKASGGTFRGYHISWVRQAPGQGLEWMGGIIHLFGTVSYAPKFQGRVTITADASTGTAHMELSSLTSDDTAIYYCARDAYEVWTGSYLPPFDYWGQGTLVTVSS VL: DIVMTQTPGTLSLSPGERVTLSCRASQTVTSSYLAWYQQKPGQAPRLLIYGAFTRATGIPDRFSGSGSGTDFTLTISRLEPEDFAVYYCQQYGSSFLTFGGGTKLEIK")
0.066
>>> observed_value("ADI-19001 (antibody, V domains shown, full-length IgG; also called Antibody Number 349) VH: EVQLVESGGGLVKPGRSLRLSCTASGFNFGDYAMSWFRQAPGKGLEWVGFIRSKTYRETREYAASVKGRFTMSRDDFNRIAYLQMNSLKTEDTAMYYCTRQDDFWSGHPYYFEYWGQGTLVTVSS VL: QPVLTQPPSASGSPGQSVTISCTGTNSDVGSYNYVSWYQHHPGKAPKLIIYDVAKRPSGVPDRFSGSKSGNTASLTVSGLQAEDEADYYCSSYAGSNDLGVFGTGTKLTVL")
3.26
>>> observed_value("ADI-19004 (antibody, V domains shown) VH: QVQLVQSGAEVKKPGASVKVSCKTSGYTFSHFGVTWIRQAPGQGLEWLGWISAYNGNTDSADKLQGRLTMTTDTSTNTAYMELRSLRSDDTAVYYCARDPPASAAAMLDYWGQGTLVTVSS VL: DIQMTQSPLSLAVTLGQPASISCRSSQGLEYTDGNTYLSWFQQRPGQSPRRLIYKVSNRDSGVPDRFSGSGAGTDFTLRISRVEAEDVGVYYCMQGTHGRGISFGPGTKVDIK")
0.128
>>> observed_value("ADI-19011 (antibody, V domains shown) VH: EVQLVESGGGVVQPGGSLRLSCAGSGFAFGSFAMHWVRQAPGKGLEWVAVISFDGKNTKYADSVKGRFTTSRDNSRNTLYLQMDSLRGDDTAIYYCATIRGIVAGLCDNWGQGTLVTVSS VL: QPVLTQSSSDSASLGASVKLTCTLSSGHRNYIIAWHQQQPGKAPRFLMKVEGSGSFTMGSGVPDRFSGSSSGADRYLTISNLQSEDEADYYCEAWDFNTGGVFGGGTQLTVL")
6.24
>>> observed_value("ADI-18985 (antibody, V domains shown) VH: QVQLVQSGPEVKKPGASVKVSCEASGYTFTDFFVHWVRQAPGEGLVWLGWVNPLSGATKYAQNFQGRVTMTSDTSITTAYMALSSLRHDDTAVYYCTSQTSPYTPGAMGVWGQGTTVTVSS VL: DIRVTQSPASLSAFVGDRVTITCRASPAISGYLSWYQQKAGKAPKILIYDASNLYSGAPSRFSGSRSGTDFTLTITSLQPEDFATYYCQQTYNGLIAFGPGTKVEIK")
0.09
>>> observed_value("ADI-18986 (antibody, V domains shown) VH: EVQLLESGGGVVQPGKSLRLSCAASGFTFNTYAIHWVRQAPGKGLEWVAAISYDGSNEYYSNSVKGRFTISRDNSKYTLELQMNSLRPEDTAVYYCARGASYYYVSSDLGYWGQGTLVTVSS VL: QSVVTQPPSVSGAPGQRVTISCTGSSSNIGSGYDVHWYQQLPGTAPKVVIYGNINRPSGVPERFSGSKSGTSASLAITGLQAEDEADYYCQSYDSLSASWVFGGGTKLTVL")
0.123
>>> observed_value("ADI-18992 (antibody, V domains shown, full-length IgG; also called Antibody Number 340) VH: QVQLVQSGAEVKKPGASVKVSCKASGYIFTGYFIHWVRQAPGQGLEWMGVINPRGGSTSYAQKFQGRVAVSRDTSTTTVYMELNSLRSEDTAVYYCARAPSHDEWVAISRNNDVVGFDAWGQGTLVTVSS VL: QSVLTQPPSVSGAPGQRVTISCTGGSSNIGADYDVHWYQQPPGTAPKLLIFANNNRPSGVPGRFSGSKSGTSASLAITGLQAEDEADYYCQSYDSSLSAWVFGGGTKLTVL")
5.69
>>> observed_value("ADI-18988 (antibody, V domains shown) VH: EVQLVESGGGLVRPGGSLRLSCAASGFSLSSYGMSWVRQAPGKGLEWVSSITAGSSYINYADSVKGRFTISRDNAKSSLFLQMTSLRVEDTAVYFCVREAYASSSALYWFDPWGQGTLVTVSS VL: QSVLTQPPSVSGAPGQRVTISCTGSSSNLGAGYVVHWYQQLPGTSPKLLIYGNTDRPSGVPDRFSGSKSGTSASLAISGLQAEDEADYYCQSYDSSLSGWVFGGGTKLTVL")
0.37
